TGI values by entry
system: HOP-92 NSCLC; assay: NCI tumour cell line growth inhibition, 48 h
Give the value, in units of µM, as a plain number.

Molecule	Experimental Readout	Meas Value
NC1CCCCC1N.O=S(=O)([O-])CCCN1CCN(CCO)CC1.O=S(=O)([O-])CCCN1CCN(CCO)CC1.[Pt+4]	TGI	59.3

Req: Fill blank: measured TGI of the molecule N#Cc1ccc2c(c1)C(=O)c1c-2n(CCCN=[N+]=[N-])c(=O)c2cc([N+](=O)[O-])ccc12 is ____.
Resp: 40.1

Req: How about CCCCCCCCC[n+]1cccc(C2C(C(=O)OCC)=C(C)NC(C)=C2C(=O)OCC)c1 ?
Resp: 6.52

Req: What about O=C1C2=C(c3ccccc31)C(c1ccc(F)cc1)N1C(=O)CCSC1=N2 (stereo not given) ?
Resp: 97.7
